# tested system: Cytochrome P450 3A4 (Homo sapiens, UniProt P08684)
# Sequence (P08684 whole entry): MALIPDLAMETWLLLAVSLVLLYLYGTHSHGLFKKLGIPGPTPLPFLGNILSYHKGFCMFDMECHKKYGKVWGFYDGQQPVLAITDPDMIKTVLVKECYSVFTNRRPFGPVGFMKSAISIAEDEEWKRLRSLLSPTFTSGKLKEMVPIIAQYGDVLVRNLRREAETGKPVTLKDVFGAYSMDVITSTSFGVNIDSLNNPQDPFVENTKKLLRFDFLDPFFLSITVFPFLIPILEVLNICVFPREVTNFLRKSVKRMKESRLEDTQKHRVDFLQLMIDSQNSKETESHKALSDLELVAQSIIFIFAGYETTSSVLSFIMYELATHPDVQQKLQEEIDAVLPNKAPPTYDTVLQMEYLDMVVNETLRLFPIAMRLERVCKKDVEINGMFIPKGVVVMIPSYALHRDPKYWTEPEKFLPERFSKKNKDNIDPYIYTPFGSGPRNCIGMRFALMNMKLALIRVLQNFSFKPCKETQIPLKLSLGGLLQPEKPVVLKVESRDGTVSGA
# assay: Inhibition of CYP3A4M in human liver microsomes using midazolam as substrate incubated for 10 mins in presence of NADPH by LC-MS/MS analysis
# Type: ADME
pIC50: −log10 of the molar value.
attribute measured: pIC50

input: What measured pIC50 goes with `C=CC(=O)N1CCCC[C@H]1c1nc(-c2ccc(C(=O)Nc3cc(C(F)(F)F)ccn3)cc2)c(C(N)=O)n1N` ?
output: < 5.00

----------
# tested system: Cytochrome P450 2C19 (Homo sapiens)
# Sequence (P33261 whole entry): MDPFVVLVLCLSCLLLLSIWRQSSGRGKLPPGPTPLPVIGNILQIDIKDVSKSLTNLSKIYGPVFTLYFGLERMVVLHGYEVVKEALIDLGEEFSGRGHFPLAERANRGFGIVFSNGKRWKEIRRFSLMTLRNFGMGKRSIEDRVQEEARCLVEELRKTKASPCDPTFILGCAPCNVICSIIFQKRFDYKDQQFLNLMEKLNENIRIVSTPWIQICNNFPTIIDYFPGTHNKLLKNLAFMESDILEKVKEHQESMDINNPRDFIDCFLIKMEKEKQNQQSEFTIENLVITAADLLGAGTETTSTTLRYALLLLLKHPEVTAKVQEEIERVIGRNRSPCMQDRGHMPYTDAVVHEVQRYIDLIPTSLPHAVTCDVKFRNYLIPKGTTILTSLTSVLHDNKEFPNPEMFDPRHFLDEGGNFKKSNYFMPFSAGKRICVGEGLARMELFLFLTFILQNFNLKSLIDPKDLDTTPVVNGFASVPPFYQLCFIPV
pIC50: −log10 of the molar value.
attribute measured: pIC50

input: What measured pIC50 goes with `C=CC(=O)N1CCCC[C@H]1c1nc(-c2ccc(C(=O)Nc3cc(C(F)(F)F)ccn3)cc2)c(C(N)=O)n1N` ?
output: < 5.00
